Origin of the recorded values: patent US11649460B2

Examples of molecules with documented CC50 follow.
Tested on: MCF-7 human breast adenocarcinoma cell line
experiment_summary: SRB cell proliferation (cytotoxicity) assay, MCF-7
assay_setup: read-out: LC50: Concentration for 50% cell death; MCF-7

Below are worked cases with known answers.
[[record]]
molecule = "AGCTGACACAGCAGGTTGGTGCCAACAAGAAAAGAAACCGTTACAGAAGACACTACAGAATAAGTGAAAAGCCGAGTCGAGCAATCTCGAAAT (nucleic acid, chemistry not given here) DNA: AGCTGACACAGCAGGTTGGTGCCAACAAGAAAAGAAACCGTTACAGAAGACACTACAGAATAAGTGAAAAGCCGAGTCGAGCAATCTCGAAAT"
reported_value = "> 100 µM"

[[record]]
molecule = "AGCTGACACAGCAGGTTGGTGCGCCCAATACAGGCGCAGTATCTGTCCGTGGGCCGGGTAAAAGTTACGGACCGAGTCGAGCAATCTCGAAAT (nucleic acid, chemistry not given here) DNA: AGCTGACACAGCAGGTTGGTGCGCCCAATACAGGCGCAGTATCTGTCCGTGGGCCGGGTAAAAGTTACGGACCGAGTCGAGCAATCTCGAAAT"
reported_value = "84.1 µM"

[[record]]
molecule = "AGCTGACACAGCAGGTTGGTGCCCAAAAGAGCCAATCCACGACGACACCCCAAAAACCATATCACGAATACCCGAGTCGAGCAATCTCGAAAT (nucleic acid, chemistry not given here) DNA: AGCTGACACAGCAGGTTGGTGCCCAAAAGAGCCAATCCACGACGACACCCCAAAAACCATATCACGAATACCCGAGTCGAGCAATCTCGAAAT"
reported_value = "> 100 µM"


Please look at the following molecule next.
Input: Please list CC50 recorded for the molecule CTGACACAGCAGGTTGGTGCCAACTAACACCATAAGAATACCCCGCTCCAAATAAGCCCACACGTAAACCCGAGTCGAGCAATCTCGAAAT (nucleic acid, chemistry not given here, DNA aptamer that recognizes human galectin-1) DNA: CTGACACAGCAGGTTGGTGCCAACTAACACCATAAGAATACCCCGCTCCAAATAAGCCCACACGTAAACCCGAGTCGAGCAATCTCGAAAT
Output: > 100 µM
